# measured.target: [^3H]PiB binding in post-mortem Alzheimer’s disease (AD) brain tissue (Homo sapiens, UniProt P05067)
# Sequence (P05067 672-713 limits assumed): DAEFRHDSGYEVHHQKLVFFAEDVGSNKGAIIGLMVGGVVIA
readout.name: Ki

Inquiry: Identify Ki associated with the compound O=C1NCc2nc(-c3cnc(N4CC[C@@H](F)C4)cn3)ccc21 [LMD-022]
Reply text: > 10 µM

---

# measured.target: [^3H]MK-6240 binding in post-mortem Alzheimer’s disease (AD) brain tissue (Homo sapiens)
# Sequence (P10636 623-758 limits assumed): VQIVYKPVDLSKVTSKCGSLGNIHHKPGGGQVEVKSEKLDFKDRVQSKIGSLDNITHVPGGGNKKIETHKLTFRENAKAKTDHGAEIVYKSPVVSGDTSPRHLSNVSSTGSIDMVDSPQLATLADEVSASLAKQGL
# assay.comment: Competition binding vs [3H]MK-6240 in post-mortem AD brain tissue
readout.name: Ki

Inquiry: Identify Ki associated with the compound "O=C1NCc2nc(-c3cnc(N4CC[C@@H](F)C4)cn3)ccc21"
Reply text: > 10 µM
